- System: 616215-338-R-J1-PDC tumor spheroids, viability;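 note: spheroids exposed to agents for 7 days before readout; percent viability relative to DMSO vehicle control wells taken as 100%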
- ASSAY SUMMARY: Anticancer human tumor 616215-338-R-J1-PDC patient-derived colon adenocarcinoma cell line growth inhibition [GQUAD]
- COND: second compound 10 µM; first compound 0.316 µM; active compounds read low; spheroids with HUVEC and MSC
Here, each record is paired with measured viability, T/C data.
READOUT LABEL: viability, T/C (%)

CC1COCCN1c1cc(-c2ccnn2C)c2ccnc(-c3ccn[nH]3)c2n1 (stereo not given) + Cc1cnc(CNC(=O)c2c(=O)c3ccc(N4CCCN(C)CC4)nc3n3c2sc2ccccc23)cn1: 23
COc1cccc2c1C(=O)c1c(O)c3c(c(O)c1C2=O)CC(O)(C(=O)CO)CC3OC1CC(N)C(O)C(C)O1 (stereo not given) + CN(C)c1ccc(Nc2c3ccc(NC(=O)CCN4CCCC4)cc3nc3cc(NC(=O)CCN4CCCC4)ccc23)cc1: 48.9
C#Cc1c(F)ccc2cc(O)cc(-c3ncc4c(N5CC6CCC(C5)N6)nc(OCC56CCCN5CC(F)C6)nc4c3F)c12 (stereo not given) + Cc1cnc(CNC(=O)c2c(=O)c3ccc(N4CCCN(C)CC4)nc3n3c2sc2ccccc23)cn1: 22.3
CC1COCCN1c1cc(C2(S(C)(=N)=O)CC2)nc(-c2ccnc3[nH]ccc23)n1 (stereo not given) + Cc1cnc(CNC(=O)c2c(=O)c3ccc(N4CCCN(C)CC4)nc3n3c2sc2ccccc23)cn1: 29.9
C=CC(=O)N1CCN(c2nc(=O)n(-c3c(C)ccnc3C(C)C)c3nc(-c4c(O)cccc4F)c(F)cc23)C(C)C1 (stereo not given) + Cc1[nH]c2ccc(F)cc2c1-c1nc2c3cccnc3c3ncccc3c2[nH]1: 88
